biological target: CD32B (FcγRIIb) (human); test: Fc receptor binding, method not stated
ENDPOINT_NAME: pKd
For clarity, pKd is expressed as the negative log10 of concentration in mol/L.

Data request: # return pKd for GASDALIE modified IgG1f antibody (human IgG1, 214R/356E/358M allotype; G236A, S239D, A330L and I332E) , test system: CD32B (FcγRIIb) (human)
Data returned: 6.05

The origin of these recorded values is patent US10196445.
